Test system: INS1(832/13)
Assay: Cytoprotective activity in rat INS-1 832/13 cells assessed as inhibition of STZ-induced apoptosis at 20 uM incubated for 24 hrs by MTT assay relative to control
Format: functional
Active and inactive are the calls of the source. No rule for the calls is given here.
One label from this list, please: active, inactive

query: Check the results log: what was the call for CCCNC(=O)OCC1=C[C@]2(CC)CCCN3CCc4c(n1c1ccccc41)[C@@H]32 ?
result: active

query: Check the results log: what was the call for CCCCN(CCCC)C(=O)C1=C[C@]2(CC)CCCN3CCc4c(n1c1ccccc41)[C@@H]32 ?
result: inactive

query: Check the results log: what was the call for CCCOC(=O)C1=C[C@]2(CC)CCCN3CCc4c(n1c1ccccc41)[C@@H]32 ?
result: active

query: Check the results log: what was the call for CC[C@@]12C=C(COC(=O)C(C)C)n3c4c(c5ccccc53)CCN(CCC1)[C@H]42 ?
result: active

query: Check the results log: what was the call for CCCCNC(=O)OCC1=C[C@]2(CC)CCCN3CCc4c(n1c1ccccc41)[C@@H]32 ?
result: inactive

query: Check the results log: what was the call for CCCCCNC(=O)C1=C[C@]2(CC)CCCN3CCc4c(n1c1ccccc41)[C@@H]32 ?
result: inactive

query: Check the results log: what was the call for CC[C@@]12C=C(CNC)n3c4c(c5ccccc53)CCN(CCC1)[C@H]42 ?
result: active

query: Check the results log: what was the call for CC[C@@]12C=C(COC(C)=O)n3c4c(c5ccccc53)CCN(CCC1)[C@H]42 ?
result: active

query: Check the results log: what was the call for CC[C@@]12C=C(COC(=O)NC(C)C)n3c4c(c5ccccc53)CCN(CCC1)[C@H]42 ?
result: active

query: Check the results log: what was the call for CC[C@@]12C=C(COC(=O)Nc3ccccc3)n3c4c(c5ccccc53)CCN(CCC1)[C@H]42 ?
result: inactive

query: Check the results log: what was the call for CC[C@@]12C=C(CNC(=O)c3ccccc3)n3c4c(c5ccccc53)CCN(CCC1)[C@H]42 ?
result: inactive

query: Check the results log: what was the call for CC[C@@]12C=C(COC(=O)NCCCO)n3c4c(c5ccccc53)CCN(CCC1)[C@H]42 ?
result: active

query: Check the results log: what was the call for CC[C@@]12C=C(CNCc3ccccc3)n3c4c(c5ccccc53)CCN(CCC1)[C@H]42 ?
result: inactive

query: Check the results log: what was the call for CCCC(=O)OCC1=C[C@]2(CC)CCCN3CCc4c(n1c1ccccc41)[C@@H]32 ?
result: active

query: Check the results log: what was the call for CCCNCC1=C[C@]2(CC)CCCN3CCc4c(n1c1ccccc41)[C@@H]32 ?
result: inactive

query: Check the results log: what was the call for CC[C@@]12C=C(C(=O)Nc3ccc(OC)cc3)n3c4c(c5ccccc53)CCN(CCC1)[C@H]42 ?
result: inactive

query: Check the results log: what was the call for CC[C@@]12C=C(C(=O)N(C)C)n3c4c(c5ccccc53)CCN(CCC1)[C@H]42 ?
result: inactive

query: Check the results log: what was the call for CC[C@@]12C=C(COC(N)=O)n3c4c(c5ccccc53)CCN(CCC1)[C@H]42 ?
result: active

query: Check the results log: what was the call for CC[C@@]12C=C(C(=O)OC)n3c4c(c5ccccc53)CCN(CCC1)[C@H]42 ?
result: active

query: Check the results log: what was the call for CC[C@@]12C=C(C(=O)NCCCO)n3c4c(c5ccccc53)CCN(CCC1)[C@H]42 ?
result: active

query: Check the results log: what was the call for CC[C@@]12C=C(C(=O)N3CCOCC3)n3c4c(c5ccccc53)CCN(CCC1)[C@H]42 ?
result: active

query: Check the results log: what was the call for CCC(=O)OCC1=C[C@]2(CC)CCCN3CCc4c(n1c1ccccc41)[C@@H]32 ?
result: active

query: Check the results log: what was the call for CCCCNC(=O)C1=C[C@]2(CC)CCCN3CCc4c(n1c1ccccc41)[C@@H]32 ?
result: active

query: Check the results log: what was the call for CCNC(=O)C1=C[C@]2(CC)CCCN3CCc4c(n1c1ccccc41)[C@@H]32 ?
result: active

query: Check the results log: what was the call for CC[C@@]12C=C(CNC(=O)Nc3ccccc3)n3c4c(c5ccccc53)CCN(CCC1)[C@H]42 ?
result: inactive

query: Check the results log: what was the call for CCCN(CCC)C(=O)C1=C[C@]2(CC)CCCN3CCc4c(n1c1ccccc41)[C@@H]32 ?
result: active

query: Check the results log: what was the call for CCNCC1=C[C@]2(CC)CCCN3CCc4c(n1c1ccccc41)[C@@H]32 ?
result: active

query: Check the results log: what was the call for CC[C@@]12C=C(C(=O)Nc3ccccc3)n3c4c(c5ccccc53)CCN(CCC1)[C@H]42 ?
result: inactive

query: Check the results log: what was the call for CC[C@@]12C=C(CN)n3c4c(c5ccccc53)CCN(CCC1)[C@H]42 ?
result: active

query: Check the results log: what was the call for CC[C@@]12C=C(CNC(=O)C3CC3)n3c4c(c5ccccc53)CCN(CCC1)[C@H]42 ?
result: active

query: Check the results log: what was the call for CC[C@@]12C=C(C(=O)NC3CCCC3)n3c4c(c5ccccc53)CCN(CCC1)[C@H]42 ?
result: active

query: Check the results log: what was the call for CCC(=O)NCC1=C[C@]2(CC)CCCN3CCc4c(n1c1ccccc41)[C@@H]32 ?
result: active

query: Check the results log: what was the call for CC[C@@]12C=C(CNC(N)=O)n3c4c(c5ccccc53)CCN(CCC1)[C@H]42 ?
result: inactive

query: Check the results log: what was the call for CCNC(=O)NCC1=C[C@]2(CC)CCCN3CCc4c(n1c1ccccc41)[C@@H]32 ?
result: inactive

query: Check the results log: what was the call for CC[C@@]12C=C(C(=O)OC(C)C)n3c4c(c5ccccc53)CCN(CCC1)[C@H]42 ?
result: active

query: Check the results log: what was the call for CC[C@@]12C=C(C(=O)NCCO)n3c4c(c5ccccc53)CCN(CCC1)[C@H]42 ?
result: active

query: Check the results log: what was the call for CC[C@@]12C=C(COC(=O)NCCO)n3c4c(c5ccccc53)CCN(CCC1)[C@H]42 ?
result: active
